- System: HCC1569
- test summary: H1.0 immunofluorescence intensity relative to DMSO (% of DMSO); higher = stronger H1.0 induction, active = 140 or more
- measurement conditions: concentration: 10 µM; 24 h
quantity: H1.0 immunofluorescence intensity
Give only the figure.

Recorded H1.0 immunofluorescence intensity, per entry:
molecule	target desc	H1.0 immunofluorescence intensity
COC(C)(C)CCCC(C)CC=CC(C)=CC(=O)O (centres undefined)	HCC1569	94.6
CC(C)(C)c1onc(OCP(=O)(O)O)c1CC(N)C(=O)O (centres undefined)	HCC1569	95.1
COC(=O)c1ccc(O)c2[nH]c3c(C=O)c(O)cc(=O)c-3nc12	HCC1569	101
CS(=O)(=O)CCNCc1nc(-c2ccc3ncnc(Nc4ccc(OCc5cccc(F)c5)c(Cl)c4)c3c2)cs1.Cl.Cl	HCC1569	136
O=c1c(O)c(-c2cc(O)c(O)c(O)c2)oc2cc(O)cc(O)c12	HCC1569	91.7
NS(=O)(=O)c1cc2c(cc1Cl)NC=NS2(=O)=O [Chlorothiazide]	HCC1569	94

Form: molecule = CCCC(CCC)C(=O)O ; H1.0 immunofluorescence intensity = 105

Form: molecule = COc1cc2c(cc1OC)C1C(=O)c3ccc4c(c3OC1CO2)C=CC(C)(C)O4 (centres undefined) ; H1.0 immunofluorescence intensity = 121

Form: molecule = COc1cc2nc(N3CCN(C(=O)C4COc5ccccc5O4)CC3)nc(N)c2cc1OC (centres undefined) ; H1.0 immunofluorescence intensity = 113

Form: molecule = O=C(CCCN1CCN(c2ccccn2)CC1)c1ccc(F)cc1 ; H1.0 immunofluorescence intensity = 103

Form: molecule = Cc1cc(C(=O)Nc2cccc(C(=O)Nc3cccc(C(F)(F)F)c3)c2)on1 ; H1.0 immunofluorescence intensity = 113

Form: molecule = CN(C)C(=N)N=C(N)N ; H1.0 immunofluorescence intensity = 101

Form: molecule = CC(CCC(=O)NCCS(=O)(=O)O)C1CCC2C3C(O)CC4CC(O)CCC4(C)C3CC(O)C12C (centres undefined) ; H1.0 immunofluorescence intensity = 111

Form: molecule = O=C(O)C1CCNCC1 ; H1.0 immunofluorescence intensity = 91.2

Form: molecule = Nc1ccc(N2C(=O)c3ccccc3C2=O)c(Cl)c1 [N-(4-Amino-2-chlorophenyl)phthalimide] ; H1.0 immunofluorescence intensity = 100

Form: molecule = O=C(NC(CO)C(O)c1ccc([N+](=O)[O-])cc1)C(Cl)Cl (centres undefined) ; H1.0 immunofluorescence intensity = 112

Form: molecule = NC(=O)Nc1cc(-c2cccc(F)c2)sc1C(=O)NC1CCCNC1 (centres undefined) ; H1.0 immunofluorescence intensity = 60.3

Form: molecule = CC1CCC2C(C)C(OC(=O)CCC(=O)O)OC3OC4(C)CCC1C32OO4 (centres undefined) [Artesunate] ; H1.0 immunofluorescence intensity = 124

Form: molecule = CCCCCC(O)C=CC=CCC=CCC=CCCCC(=O)O (centres undefined) ; H1.0 immunofluorescence intensity = 99.7

---

- Tested on: HCC1569
- test summary: H1.0 immunofluorescence intensity relative to DMSO (% of DMSO); higher = stronger H1.0 induction, active = 140 or more
- measurement conditions: concentration: 10 µM; 24 h
quantity: H1.0 immunofluorescence intensity

compound	target desc	result
C=C1CC23CC1(O)CCC2C12C=CC(O)C(C)(C(=O)O1)C2C3C(=O)O (single isomer, unassigned; (+)) [(+)-Gibberellic acid]	HCC1569	89.5 (inactive)
CCCCCC=CCC=CCC=CC=CC(O)CCCC(=O)O (racemic)	HCC1569	102 (inactive)
COc1ccc(S(=O)(=O)Nc2nc(-c3cccc([N+](=O)[O-])c3)c(CN3CCCCC3)s2)cc1OC	HCC1569	110 (inactive)

Proceeding to the next compound to report its H1.0 immunofluorescence intensity.
Form: compound = COC(=O)C1=C(C)NC(C)=C(C(=O)OCCN2CCN(C(c3ccccc3)c3ccccc3)CC2)C1c1cccc([N+](=O)[O-])c1 (centres undefined) ; H1.0 immunofluorescence intensity = 111 (inactive)

---

- Tested on: HCC1569
- test summary: H1.0 immunofluorescence intensity relative to DMSO (% of DMSO); higher = stronger H1.0 induction, active = 140 or more
- measurement conditions: concentration: 10 µM; 24 h
Quick reference for H1.0 immunofluorescence intensity among some compounds

Recorded H1.0 immunofluorescence intensity, per entry:
compound	quantity	result
CN(C)c1nc(N)c(C(=O)N=C(N)N)nc1Cl.Cl [5-(N,N-Dimethyl)amiloride hydrochloride]	H1.0 immunofluorescence intensity	103 (inactive)
CS(=O)(=O)O.Cn1cc(C(F)(F)F)nc1-c1ccc(OCC(O)CNCCOc2ccc(O)c(C(N)=O)c2)cc1 (stereo not drawn)	H1.0 immunofluorescence intensity	96.4 (inactive)
N#CC(=Cc1ccc(O)c(O)c1)C(=O)Nc1ccccc1	H1.0 immunofluorescence intensity	108 (inactive)
OCC1OC(n2cnc3c(Nc4ccccc4)ncnc32)C(O)C1O (stereo not drawn)	H1.0 immunofluorescence intensity	104 (inactive)
O=NN(CCCl)C(=O)NC1CCCCC1	H1.0 immunofluorescence intensity	99.7 (inactive)

Form: compound = O=C(C=Cc1ccc(O)c(O)c1)c1ccc(OC2OC(CO)C(O)C(O)C2O)c(O)c1O (stereo not drawn) ; H1.0 immunofluorescence intensity = 91.5 (inactive)

Form: compound = CCCCCC=CCC(O)C=CC=CC=CC(O)CCCC(=O)O [5(S),12(R)-DIHETE all trans] ; H1.0 immunofluorescence intensity = 101 (inactive)

Form: compound = Fc1ccc(-c2c3cccc(C(F)(F)F)c3nn2Cc2ccc(F)cc2Cl)cc1 ; H1.0 immunofluorescence intensity = 102 (inactive)

---

- Test system: TDF
- test summary: cell number relative to DMSO (% of DMSO); higher = more cells (less growth inhibition / toxicity)
- measurement conditions: concentration: 10 µM; 24 h
quantity: cell number
Give only the figure.

Lab entry: TDF assay, compound Br.CN(C)CCCC1(c2ccc(F)cc2)OCc2cc(C#N)ccc21 (centres undefined) [Citalopram hydrobromide] , cell number = 103

Lab entry: TDF assay, compound CCOC(=O)c1c(C)[nH]c(C=C2C(=O)Nc3ccccc32)c1C [VEGF Receptor 2 Kinase Inhibitor I] , cell number = 97.1

Lab entry: TDF assay, compound CCC=CCC=CCC=CCC=CCC=CCCCC(=O)O , cell number = 102

Lab entry: TDF assay, compound CN1CCN(c2nc3cc(C(F)(F)F)ccc3n3cccc23)CC1.O=C(O)C=CC(=O)O , cell number = 104

---

Quick reference for cell number among some compounds
- System: TDF
- test summary: cell number relative to DMSO (% of DMSO); higher = more cells (less growth inhibition / toxicity)
- measurement conditions: concentration: 10 µM; 24 h
Give only the figure.

compound	cell number
Cn1cc(-c2ccc3nnc(C(F)(F)c4ccc5ncccc5c4)n3n2)cn1	96
CCCCCCCCC=CCCCCCCCCCCCCCC(=O)O [15(Z)-Tetracosenoic acid]	98.8
CC(C)(C)c1ccc(S(=O)(=O)Nc2ccc(-n3ccnc3)cc2)cc1	102
COc1ccc(-c2cc(=O)c3ccc(O)cc3o2)cc1	87.4
CCc1[nH]c(-c2ccc(OC)cc2)nc1-c1ccncc1	99.6

Form: compound = COC(=O)C1C2CC3c4[nH]c5cc(OC)ccc5c4CCN3CC2CC(OC(=O)c2cc(OC)c(OC)c(OC)c2)C1OC (stereo not drawn) [Reserpine] ; cell number = 86.3

Form: compound = Cl.NC(N)=NC(=O)c1nc(Cl)c(N)nc1N [Amiloride hydrochloride] ; cell number = 100

Form: compound = O=C1CCc2ccc(OCCCCN3CCN(c4cccc(Cl)c4Cl)CC3)cc2N1 ; cell number = 97

---

- Tested on: TDF
- test summary: cell number relative to DMSO (% of DMSO); higher = more cells (less growth inhibition / toxicity)
- measurement conditions: concentration: 10 µM; 24 h
quantity: cell number
Give only the figure.

Recorded cell number, per entry:
compound	numeric value
CCCCN1CC(O)C(O)C(O)C1CO (stereo not given)	95.6
CCCCCCCCCCC1=C(C)C(=O)C(OC)=C(OC)C1=O	89.2
CCOC(=O)c1cnc2c(cnn2CC)c1NN=C(C)C.Cl [Etazolate hydrochloride]	101

Form: compound = CC(C)=CCCC(C)=CCCC(C)=CCCC(C)=CCCC(C)=CCCC(C)=CCCC(C)=CCCC(C)=CCCC(C)=CCO ; cell number = 97.8

Form: compound = Fc1ccc(C2CCNCC2COc2ccc3c(c2)OCO3)cc1 (stereo not given) ; cell number = 99.3

---

- Tested on: HCC1569
- test summary: cell number relative to DMSO (% of DMSO); higher = more cells (less growth inhibition / toxicity)
- measurement conditions: concentration: 10 µM; 24 h
quantity: cell number
Give only the figure.

Recorded cell number, per entry:
compound	quantity	numeric value
Cl.O=C1CC2(CCCC2)CC(=O)N1CCCCN1CCN(c2ncccn2)CC1 [Buspirone hydrochloride]	cell number	97.6
CN1C(CC(=O)c2ccccc2)CCCC1CC(O)c1ccccc1 (stereo not given)	cell number	103

Form: compound = Cc1nc(C(=O)N2CCC[C@H]2Cc2nnc(-c3ccccc3)o2)c(-c2ccccc2F)s1 ; cell number = 96.3

Form: compound = CC(F)(F)CN1CCOc2c(nn(-c3ccccc3Cl)c2-c2ccc(Cl)cc2)C1=O ; cell number = 104

Form: compound = C=CC(C)(O)CCC1C(C)(O)CCC2C(C)(C)CCCC21C (stereo not given) ; cell number = 105
